Target: hERG potassium channel (human Ether-à-go-go Related Gene) (Homo sapiens, UniProt Q12809, F557L)
Construct: gene KCNH2; F557L hERG transiently expressed in HEK 293 cells
Assay: whole-cell patch-clamp, single concentration […]
Assay type: cell-based
Conditions: read-out: % of control tail current at 300 nM
property-measured: activity at 0.3 µM

smiles_str=Cc1ccc(C(=O)C2CCN(CCc3ccccc3)CC2)cc1 result=57.9%

---

Target: hERG potassium channel (human Ether-à-go-go Related Gene) (Homo sapiens, UniProt Q12809, T623A)
Construct: gene KCNH2; T623A hERG transiently expressed in HEK 293 cells
Assay: whole-cell patch-clamp, inward tail current in […] K+, […]
Format: cell-based
Settings: read-out: % of control tail current at 300 nM
property-measured: activity at 0.3 µM (%)

smiles_str=Cc1ccc(C(=O)C2CCN(CCc3ccccc3)CC2)cc1 property_measured="activity at 0.3 µM" quantitative_result=69.7
